Data credit: patent US20230091225A1

# Lookup of reported DC50 keyed by entry
System: androgen receptor (AR) (Homo sapiens, UniProt P10275)
Sequence (P10275 1-920): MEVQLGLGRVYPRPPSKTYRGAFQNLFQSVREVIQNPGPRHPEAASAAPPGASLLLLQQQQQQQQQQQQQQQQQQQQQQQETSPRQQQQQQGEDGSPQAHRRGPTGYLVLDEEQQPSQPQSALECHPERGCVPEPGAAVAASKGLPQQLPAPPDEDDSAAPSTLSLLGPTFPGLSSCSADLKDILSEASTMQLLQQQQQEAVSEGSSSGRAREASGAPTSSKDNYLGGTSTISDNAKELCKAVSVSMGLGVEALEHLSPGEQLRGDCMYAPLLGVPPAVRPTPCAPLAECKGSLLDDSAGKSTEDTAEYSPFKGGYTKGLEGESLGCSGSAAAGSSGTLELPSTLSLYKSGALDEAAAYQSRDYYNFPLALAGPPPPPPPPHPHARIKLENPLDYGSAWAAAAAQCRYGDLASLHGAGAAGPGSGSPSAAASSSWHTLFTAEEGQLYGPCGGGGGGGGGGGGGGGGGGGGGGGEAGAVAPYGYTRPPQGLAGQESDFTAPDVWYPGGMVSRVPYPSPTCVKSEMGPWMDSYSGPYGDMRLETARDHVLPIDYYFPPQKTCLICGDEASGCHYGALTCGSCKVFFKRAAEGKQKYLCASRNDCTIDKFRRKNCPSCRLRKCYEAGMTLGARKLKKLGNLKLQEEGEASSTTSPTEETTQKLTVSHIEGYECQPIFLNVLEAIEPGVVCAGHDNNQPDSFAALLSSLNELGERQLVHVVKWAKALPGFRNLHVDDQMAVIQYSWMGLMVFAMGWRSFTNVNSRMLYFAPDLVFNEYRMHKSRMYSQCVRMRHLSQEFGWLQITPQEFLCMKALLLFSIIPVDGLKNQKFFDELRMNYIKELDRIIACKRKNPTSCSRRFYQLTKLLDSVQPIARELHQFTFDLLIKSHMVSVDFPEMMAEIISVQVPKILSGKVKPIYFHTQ
Protocol Description: Degradation of androgen receptor (AR) protein in VCaP cells by ELISA
Type: cell-based
Experimental Parameters: AR degradation, VCaP cells, 16 h, ELISA, Table 3-1; read-out: DC50
Parameter: DC50

[[record]]
molecule = "CC1(C)[C@H](Oc2ccc(C#N)c(Cl)c2)C(C)(C)[C@H]1N1Cc2nc(C#CC3CCC(N4CC5CN(c6cc7c(cc6F)C(=O)N(C6CCC(=O)NC6=O)C7=O)CC5C4)CC3)ccc2C1=O (some centres unmarked)"
observed = "< 0.01 µM"

[[record]]
molecule = "N#Cc1ccc(O[C@H]2CC[C@H](NC(=O)c3ccc(N4CCC5(CC4)CC(N4CCN(c6cc7c(cc6F)C(=O)N(C6CCC(=O)NC6=O)C7=O)CC4)C5)nn3)CC2)cc1Cl (some centres unmarked)"
observed = "< 0.01 µM"

[[record]]
molecule = "N#Cc1ccc(O[C@H]2CC[C@H](NC(=O)c3ccc(N4CCC(N5CC6(CCN(c7cc8c(cc7F)C(=O)N(C7CCC(=O)NC7=O)C8=O)CC6)C5)CC4)nn3)CC2)cc1C(F)(F)F (some centres unmarked)"
observed = "0.01 to 0.1 µM"

[[record]]
molecule = "N#Cc1ccc(O[C@H]2CC[C@H](NC(=O)c3ccc(N4CCC(N5CC6(CCN(c7ccc8c(c7)C(=O)N(C7CCC(=O)NC7=O)C8=O)CC6)C5)CC4)nn3)CC2)cc1Cl (some centres unmarked)"
observed = "< 0.01 µM"

[[record]]
molecule = "N#Cc1ccc(O[C@H]2CC[C@H](NC(=O)c3ccc(N4CCC(N5CC6(CCN(c7cc8c(cc7F)C(=O)N(C7CCC(=O)NC7=O)C8=O)CC6)C5)CC4)nc3)CC2)cc1Cl (some centres unmarked)"
observed = "< 0.01 µM"

[[record]]
molecule = "N#Cc1ccc(O[C@H]2CC[C@H](NC(=O)c3ccc(N4CCC5(CC4)CN(CC4CCN(c6cc7c(cc6F)C(=O)N(C6CCC(=O)NC6=O)C7=O)CC4)C5)nn3)CC2)cc1Cl (some centres unmarked)"
observed = "< 0.01 µM"

[[record]]
molecule = "COc1cc(O[C@H]2CC[C@H](NC(=O)c3ccc(N4CCC(CN5CCC6(CC5)CN(c5ccc7c(c5)C(=O)N(C5CCC(=O)NC5=O)C7=O)C6)CC4)nn3)CC2)ccc1C#N (some centres unmarked)"
observed = "< 0.01 µM"

[[record]]
molecule = "C[C@H]1CN(C[C@@H]2[C@H]3CN(c4cc5c(cc4F)C(=O)N(C4CCC(=O)NC4=O)C5=O)C[C@@H]23)CCN1c1cnc(C(=O)N[C@H]2CC[C@H](Oc3ccc(C#N)c(Cl)c3)CC2)cn1 (some centres unmarked)"
observed = "0.01 to 0.1 µM"

[[record]]
molecule = "N#Cc1ccc(O[C@H]2CC[C@H](NC(=O)c3cnc(N4CCC(CN5CCC6(CC5)CN(c5cc7c(cc5F)C(=O)N(C5CCC(=O)NC5=O)C7=O)C6)CC4)nc3)CC2)cc1Cl (some centres unmarked)"
observed = "< 0.01 µM"

[[record]]
molecule = "N#Cc1ccc(O[C@H]2CC[C@H](NC(=O)c3cnn([C@H]4CC[C@H](CN5CCC6(CC5)CN(c5cc7c(cc5F)C(=O)N(C5CCC(=O)NC5=O)C7=O)C6)CC4)n3)CC2)cc1Cl (some centres unmarked)"
observed = "0.1 to 0.3 µM"

[[record]]
molecule = "N#Cc1ccc(O[C@H]2CC[C@H](NC(=O)c3ncnn3[C@H]3CC[C@H](CN4CCC5(CC4)CN(c4cc6c(cc4F)C(=O)N(C4CCC(=O)NC4=O)C6=O)C5)CC3)CC2)cc1Cl (some centres unmarked)"
observed = "0.1 to 0.3 µM"

[[record]]
molecule = "CC1(C)[C@H](Oc2ccc(C#N)c(Cl)c2)C(C)(C)[C@H]1N1Cc2nc(C#CC3CCC(N4CC5(CCN(c6cc7c(cc6F)C(=O)N(C6CCC(=O)NC6=O)C7=O)CC5)C4)CC3)ccc2C1=O (some centres unmarked) [Compound 378]"
observed = "> 0.3 µM"

[[record]]
molecule = "N#Cc1ccc(OC2CCC(NC(=O)c3cnc(N4CC5(CCN(CC6CCN(c7cc8c(cc7F)C(=O)N(C7CCC(=O)NC7=O)C8=O)CC6)CC5)C4)cn3)CC2)cc1Cl (centres unmarked)"
observed = "< 0.01 µM"

[[record]]
molecule = "N#Cc1ccc(O[C@H]2CC[C@H](NC(=O)c3ccc(N4CC5(CCN(C6CCN(c7cc8c(cc7F)C(=O)N(C7CCC(=O)NC7=O)C8=O)CC6)CC5)C4)nn3)CC2)cc1Cl (some centres unmarked)"
observed = "< 0.01 µM"

[[record]]
molecule = "CC1(C)[C@H](Oc2ccc(C#N)c(Cl)c2)C(C)(C)[C@H]1N1Cc2nc(C#CC3CCC(N4CCC5(CN(c6ccc7c(c6)C(=O)N(C6CCC(=O)NC6=O)C7=O)C5)C4)CC3)ccc2C1=O (some centres unmarked) [Compound 373]"
observed = "> 0.3 µM"

[[record]]
molecule = "N#Cc1ccc(O[C@H]2CC[C@H](NC(=O)c3ccc(N4CC5CC4CN5C[C@H]4[C@@H]5CN(c6cc7c(cc6F)C(=O)N(C6CCC(=O)NC6=O)C7=O)C[C@@H]54)nn3)CC2)cc1Cl (some centres unmarked)"
observed = "0.1 to 0.3 µM"

[[record]]
molecule = "N#Cc1ccc(O[C@H]2CC[C@H](NC(=O)c3cnc(N4CCC(N5CCC6(CC5)CN(c5ccc7c(c5)C(=O)N(C5CCC(=O)NC5=O)C7=O)C6)CC4)cn3)CC2)cc1Cl (some centres unmarked)"
observed = "0.01 to 0.1 µM"

[[record]]
molecule = "N#Cc1ccc(OC2CCC(NC(=O)c3ncn(C4CCC(CN5CCC6(CC5)CN(c5ccc7c(c5)C(=O)N(C5CCC(=O)NC5=O)C7=O)C6)CC4)n3)CC2)cc1Cl (centres unmarked)"
observed = "< 0.01 µM"

[[record]]
molecule = "CC1(C)[C@H](Oc2ccc(C#N)c(Cl)c2)C(C)(C)[C@H]1N1Cc2nc(N3CCC(CN4CCN(c5cc6c(cc5F)C(=O)N(C5CCC(=O)NC5=O)C6=O)CC4)CC3)cnc2C1=O (some centres unmarked)"
observed = "< 0.01 µM"

[[record]]
molecule = "N#Cc1ccc(O[C@H]2CC[C@H](NC(=O)c3nnc(N4CCC(N5CCC6(CC5)CN(c5cc7c(cc5F)C(=O)N(C5CCC(=O)NC5=O)C7=O)C6)CC4)s3)CC2)cc1Cl (some centres unmarked)"
observed = "> 0.3 µM"


----------
System: androgen receptor (AR) (Homo sapiens)
Sequence (P10275 1-920): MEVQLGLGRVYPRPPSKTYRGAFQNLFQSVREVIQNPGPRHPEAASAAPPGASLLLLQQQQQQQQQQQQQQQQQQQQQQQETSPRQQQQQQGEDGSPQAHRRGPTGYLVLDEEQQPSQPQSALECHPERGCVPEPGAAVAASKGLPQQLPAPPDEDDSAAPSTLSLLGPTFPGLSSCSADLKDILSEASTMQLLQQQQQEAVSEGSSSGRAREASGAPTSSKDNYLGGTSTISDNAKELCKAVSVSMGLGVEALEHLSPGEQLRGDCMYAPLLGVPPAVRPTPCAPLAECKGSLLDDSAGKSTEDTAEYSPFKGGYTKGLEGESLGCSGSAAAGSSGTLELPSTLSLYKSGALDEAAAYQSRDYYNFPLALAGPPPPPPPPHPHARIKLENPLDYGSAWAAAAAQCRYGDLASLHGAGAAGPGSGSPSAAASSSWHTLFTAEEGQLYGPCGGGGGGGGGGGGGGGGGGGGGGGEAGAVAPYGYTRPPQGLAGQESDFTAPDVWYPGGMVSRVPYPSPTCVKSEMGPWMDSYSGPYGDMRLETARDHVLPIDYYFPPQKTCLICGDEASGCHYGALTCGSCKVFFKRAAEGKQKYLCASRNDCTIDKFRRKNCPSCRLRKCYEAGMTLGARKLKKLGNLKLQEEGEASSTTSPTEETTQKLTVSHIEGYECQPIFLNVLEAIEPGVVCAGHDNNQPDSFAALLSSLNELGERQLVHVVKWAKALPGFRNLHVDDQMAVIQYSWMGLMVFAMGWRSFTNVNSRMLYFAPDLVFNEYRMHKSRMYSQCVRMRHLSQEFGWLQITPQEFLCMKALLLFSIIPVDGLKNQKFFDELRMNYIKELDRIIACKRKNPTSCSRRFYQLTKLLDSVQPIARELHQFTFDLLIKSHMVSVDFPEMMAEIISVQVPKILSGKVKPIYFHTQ
Protocol Description: Degradation of androgen receptor (AR) protein in VCaP cells by Western blot
Type: cell-based
Experimental Parameters: percentage of degraded AR at 100 nM, VCaP cells, 16 h
Parameter: inhibition at 0.1 µM

[[record]]
compound = "N#Cc1ccc(O[C@H]2CC[C@H](NC(=O)c3cnc(N4CCC(CN5CC6CN(c7cc8c(cc7F)C(=O)N(C7CCC(=O)NC7=O)C8=O)CC6C5)CC4)nc3)CC2)cc1Cl (stereo partly drawn)"
observed = "25 to 49%"

[[record]]
compound = "CC1(C)[C@H](NC(=O)c2ccc(N3CCN(C[C@@H]4[C@H]5CN(c6cc7c(cc6F)C(=O)N(C6CCC(=O)NC6=O)C7=O)C[C@@H]45)CC3)nn2)C(C)(C)[C@H]1Oc1ccc(C#N)c(Cl)c1 (stereo partly drawn)"
observed = "25 to 49%"

[[record]]
compound = "N#Cc1ccc(O[C@H]2CC[C@H](NC(=O)c3ccc(N4CCC5(CC4)CN(C4CCN(c6ccc7c(c6)C(=O)N(C6CCC(=O)NC6=O)C7=O)CC4)C5)nn3)CC2)cc1Cl (stereo partly drawn)"
observed = "> 80%"

